Value source: paper PMC4987164

# assay.target: ESR1 (Homo sapiens, UniProt P03372)
# Sequence (P03372 311-547 limits assumed): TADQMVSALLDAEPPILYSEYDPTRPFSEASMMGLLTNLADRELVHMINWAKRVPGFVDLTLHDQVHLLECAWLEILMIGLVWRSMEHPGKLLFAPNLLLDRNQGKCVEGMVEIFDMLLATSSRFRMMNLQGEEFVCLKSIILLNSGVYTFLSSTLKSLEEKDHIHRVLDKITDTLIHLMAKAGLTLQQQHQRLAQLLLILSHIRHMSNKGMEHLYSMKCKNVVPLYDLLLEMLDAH
# method.description: Direct
# condition.description: read-out: binding affinity (Kd) for the ESR1–Fl-E1 complex; saturation binding curves (data not shown)

compound: CC12CCC3c4ccc(O)cc4CCC3C1CCC2=NNC(=S)Nc1ccc2c(c1)C(=O)OC21c2ccc(O)cc2Oc2cc(O)ccc21 (stereo not shown) [Fl-E1]
readout.units: nM
Kd: 2.3
